Consider the following compounds and their measured TGI readings.
# Test system: SF-539 CNS
# procedure-text: NCI tumour cell line growth inhibition, 48 h
# number only, unit µM dropped from output

In [3]: df
Out[3]:
                                   compound  target_or_test_system  scale_unit  assay_result
0  CN1CCN(c2ccc3nc(-c4[nH]ncc4Nc4ncnc5c4OCCCN5)[nH]c3c2)CC1             SF-539 CNS          µM        0.0214

Next compound, TGI to be filled in.
Problem: So what TGI did c1ccc2c(c1)Sc1ccccc1N2C1CN2CCC1CC2 (stereo not given) get with SF-539 CNS?
Result: 28.3
